Target: T1, human PD-1 extracellular domain (human, UniProt Q15116 25-170)
T1 construct: extracellular domain; Soluble analyte in the bio-layer interferometry assay; also called recombinant human PD-1 extracellular domain protein
T1 sequence (Q15116 25-170): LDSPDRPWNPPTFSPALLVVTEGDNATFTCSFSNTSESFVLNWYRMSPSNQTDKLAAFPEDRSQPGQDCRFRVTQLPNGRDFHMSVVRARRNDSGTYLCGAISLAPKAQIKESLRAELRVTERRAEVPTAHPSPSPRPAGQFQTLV
Experiment: bio-layer interferometry (Octet Red 96), antibody on anti-human Fc biosensor, PD-1 ECD in solution, 1:1 global fit, 30 C
Experimental: The binding kinetics of selected anti-PD-1 antibodies AB1-AB5 and AB1HU-AB5HU was determined by bio-layer interferometry analysis on a ForteBio Octet Red 96 instrument. First, purified antibodies were produced by protein A chromatography using HEK-293 transiently-transfected antibody supernatants. […] Dissociation was measured after transfer of the biosensors into kinetics buffer and monitoring the interferometry signals for 15 minutes. […]
kon values, listed per item
Report only the number, with the unit M⁻¹ s⁻¹ understood.

Short answer for AB1 (antibody, human IgG1, kappa, V domains shown, Rabbit variable domains on human IgG1 / human kappa constant domains; purified by protein A from HEK-293 supernatant; also called AB1 chimeric; rabbit/human chimeric anti-PD-1 antibody AB1) VH: QSLEESGGDLVKPEGSLTLTCKASGFDFSSGYWICWVRQAPGKGLELIACIYAGTSGSTSYASWARGRFTISETSSTTVTLQMTSLTAADSATYFCARNLYTYNSLWGQGTLVTVSS VL: QVLTQTASSVSAAVGGTVTISCQSSQSVYDNNWLAWYQQKPGQPPMLLIYTVSTLASGVSSRFKGSGSGTQFTLTISGVQCDDAATYYCQGTYYSSGWNFAFGGGTEVVVKR : kon was 36000

Short answer for AB2HU (antibody, human IgG1, kappa, V domains shown, Humanized, human gamma-1 / kappa constant domains as in the full-length entries; also called humanized form of antibody AB2) VH: QEQLLESGGGLVQPGGSLRLSCTASGFSFSSYWMCWVRQAPGKGLEWIGCITTGSGSTYYASWAKRRFTISKDNSKNTVTLQMNSLRAEDTAVYYCTRAFDLWGQGTLVTVSS VL: DIQMTQSPSSLSASVGDRVTITCQASQSIYSYLNWYQQKPGKAPKLLIYGASNLASGVPSRFSGSGSGTDFTLTISSLQPEDFATYYCQSSWLSGAVGNAFGGGTKVEIKR : kon was 89000

Short answer for AB4HU (antibody, human IgG1, kappa, V domains shown, Humanized, human gamma-1 / kappa constant domains as in the full-length entries; also called humanized form of antibody AB4) VH: EVQLVESGGGLVQPGGSLRLSCTASGFSLSSYAMSWVRQAPGKGLEYIGYIGDTTGIAYASWANGRFTISKDNTKNTVDLQMNSLRAEDTAVYYCARGWSYLDIWGQGTLVTVSS VL: ALVMTQSPSSLSASVGDRVTITCQASQNIYSNLAWYQQKPGKVPKLLIYQASTLASGVPSRFSGSGYGTDFTLTISSLQPEDVATYYCQGGYYSAALNTFGGGTKVEIKR : kon was 87000
